tested on: WRN helicase (Homo sapiens (Human))
assay overview: In vitro enzymatic activity assay on WRN helicase (DNA dependent ATPase assay, ADP-Glo)
Assay type: biochemical
condition set: geometric means of at least 2 determinations; read-out: WRN ATPase Activity (IC50)
Rule: IC50 below 60 nM gives t. Equal to or above 60 nM gives f.

> print(dat)
                                   compound                            tested.on  answer.label
1  CCc1c(N2CCN(C(=O)c3ncccc3O)CC2)c(=O)n2nc(C3=CCOCC3)nc2n1CC(=O)Nc1cc(Cl)c(C(F)(F)F)nc1C [Example 102]  WRN helicase (Homo sapiens (Human))             f
2  CCc1c(N2CCN(C(=O)c3nccc(Cl)c3O)CC2)c(=O)n2nc(C3=COCCO3)nc2n1CC(=O)Nc1ccc(C(F)(F)F)c(F)c1C [Example 79]  WRN helicase (Homo sapiens (Human))             t
3  CCc1c(N2CCN(C(=O)c3ncccc3O)[C@H](C)C2)c(=O)n2nc(C3=CCOCC3)nc2n1CC(=O)Nc1ccc(C(F)(F)F)cc1 [Example 71]  WRN helicase (Homo sapiens (Human))             f
4  CCc1c(N2CCN(C(=O)c3ncnc(C)c3O)CC2)c(=O)n2nc(C3=CCOCC3)nc2n1CC(=O)Nc1cc(F)c(C(F)F)cc1C [Example 53]  WRN helicase (Homo sapiens (Human))             f

Shifting focus to the compound that follows.
Ask: For this compound, is IC50 lower than 60 nM? CCc1c(N2CCN(C(=O)c3nccc(Cl)c3O)CC2)c(=O)n2nc(N3CCOCC3)nc2n1CC(=O)Nc1ccc(C(F)(F)F)cc1Cl [Example 1]
Result: t

---

tested on: WRN helicase (Homo sapiens (Human), UniProt Q14191)
Sequence (Q14191 517-1238): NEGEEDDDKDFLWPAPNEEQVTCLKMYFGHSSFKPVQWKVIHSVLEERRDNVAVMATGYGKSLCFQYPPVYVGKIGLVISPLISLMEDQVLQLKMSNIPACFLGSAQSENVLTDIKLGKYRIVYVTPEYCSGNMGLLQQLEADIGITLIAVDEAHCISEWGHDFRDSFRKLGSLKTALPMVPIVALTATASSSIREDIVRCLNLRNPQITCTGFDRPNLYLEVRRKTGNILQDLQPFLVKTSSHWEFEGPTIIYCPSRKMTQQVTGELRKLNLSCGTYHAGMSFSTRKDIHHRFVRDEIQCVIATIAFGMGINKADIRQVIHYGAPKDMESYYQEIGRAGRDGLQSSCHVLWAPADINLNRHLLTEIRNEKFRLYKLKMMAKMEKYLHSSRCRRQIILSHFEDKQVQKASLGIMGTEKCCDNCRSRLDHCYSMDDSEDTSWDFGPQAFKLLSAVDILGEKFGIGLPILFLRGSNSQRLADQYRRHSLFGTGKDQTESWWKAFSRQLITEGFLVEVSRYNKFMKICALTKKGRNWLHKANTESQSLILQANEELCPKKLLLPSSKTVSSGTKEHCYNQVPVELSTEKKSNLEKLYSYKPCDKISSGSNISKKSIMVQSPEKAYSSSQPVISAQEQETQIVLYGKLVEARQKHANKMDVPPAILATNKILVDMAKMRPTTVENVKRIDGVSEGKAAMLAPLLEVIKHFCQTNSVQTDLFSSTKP
assay overview: In vitro enzymatic activity assay on WRN helicase (DNA dependent ATPase assay, ADP-Glo)
Format: biochemical
condition set: geometric means of at least 2 determinations; read-out: WRN ATPase Activity (IC50)
Quick reference: pIC50 of the listed items.
Please express pIC50 as -log10 of the molar concentration.

Sample answers from the record:
> print(dat)
                                test.smiles  experimental.value
1  CCc1c(N2CCN(C(=O)c3ncccc3O)CC2)c(=O)n2nc(C3=COCCO3)nc2n1CC(=O)Nc1ccc(C(F)(F)F)nc1Cl                6.89
2  CCc1c(N2CCN(C(=O)c3nccc(Cl)c3O)CC2)c(=O)n2nc(C3=CCCCO3)nc2n1CC(=O)Nc1ccc(C(F)(F)F)nc1C                6.80

We now examine a further compound.
Looking up Cc1ccc(O)c(C(=O)N2CCN(c3c(C)n(CC(=O)Nc4ccc(C(F)(F)F)cc4)c4nc(C5=CCOCC5)nn4c3=O)CC2)n1 , I see its pIC50 listed as 7.10
